Assay: Oral bioavailability rat at 10 mg/kg
Assay type: ADME, organism-based
Details: in vivo
What bioavailability was measured for each of the following?
State the answer as a number, implicitly in %.

// returns reported bioavailability for input `CCS(=O)(=O)NC(=O)c1ccc2c(C3CCCCC3)c3n(c2c1)C[C@@]1(C(=O)N2C4CCC2CN(C)C4)C[C@H]1c1cc(F)ccc1-3` 13.6

// returns reported bioavailability for input `CN1CC2CCC(C1)N2C(=O)[C@]12C[C@H]1c1cc(F)ccc1-c1c(C3CCCCC3)c3ccc(C(=O)NS(=O)(=O)C4(C)CC4)cc3n1C2` 52

// returns reported bioavailability for input `CN1CC2CCC(C1)N2C(=O)[C@]12C[C@H]1c1cc(F)ccc1-c1c(C3CCCCC3)c3ccc(C(=O)NS(=O)(=O)C(C)(C)C)cc3n1C2` 8

// returns reported bioavailability for input `CN1CC2CCC(C1)N2C(=O)[C@]12C[C@H]1c1cc(F)ccc1-c1c(C3CCCCC3)c3ccc(C(=O)NS(=O)(=O)N4CCC4)cc3n1C2` 19

// returns reported bioavailability for input `CN1CC2CCC(C1)N2C(=O)[C@]12C[C@H]1c1cc(F)ccc1-c1c(C3CCCCC3)c3ccc(C(=O)NS(=O)(=O)C4CC4)cc3n1C2` 23

----------
Assay: AUC (0 to 24 hrs) in cynomolgus monkey at 1 mg/kg, iv
Assay type: ADME, organism-based, Macaca fascicularis
Parameters: dose 1 mg/kg, time < 24 hr, route intravenous
Conditions: in vivo
quantity_measured: AUC(0-t) at 24 h (µM·h)
State the answer as a number, implicitly in µM·h.

// returns reported AUC(0-t) at 24 h for input `CN1CC2CCC(C1)N2C(=O)[C@]12C[C@H]1c1cc(F)ccc1-c1c(C3CCCCC3)c3ccc(C(=O)NS(=O)(=O)C4(C)CC4)cc3n1C2` 2.3

----------
Experiment: Volume of distribution at steady state in rat at 5 mg/kg, iv
Assay type: ADME, organism-based
Conditions: in vivo, read-out: Vdss
quantity_measured: Vd
Quick note: unit goes after the number.

// returns reported Vd for input `CN1CC2CCC(C1)N2C(=O)[C@]12C[C@H]1c1cc(F)ccc1-c1c(C3CCCCC3)c3ccc(C(=O)NS(=O)(=O)C4(C)CC4)cc3n1C2` 3.9 L/kg

----------
Assay: Oral bioavailability in cynomolgus monkey at 3 mg/kg
Type: ADME, organism-based, Macaca fascicularis
Conditions: in vivo
quantity_measured: bioavailability (%)
State the answer as a number, implicitly in %.

// returns reported bioavailability for input `CN1CC2CCC(C1)N2C(=O)[C@]12C[C@H]1c1cc(F)ccc1-c1c(C3CCCCC3)c3ccc(C(=O)NS(=O)(=O)C4(C)CC4)cc3n1C2` 48
